Assay: chemical genetic growth profiling, strain panel (AID 1159580);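 further: tested at 20 µM; growth read once vehicle control cultures reached saturation at 30 °C; 1 = growth at the plate median or of vehicle wells; lower values mean less growth of the strain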
Settings: S. cerevisiae deletion strains, growth OD, locus YLR418C, strain cdc73
Screen size: about 5,500 compounds; about 2,000 (36%) were called active. Inconclusive results (about 18%) are left out. No stated cut-off is given here; in the data, active means normalized growth mostly below about 0.91 (no sharp cut-off); inconclusive means no clear call, values can overlap the other calls; inactive means mostly above about 0.92. Some of the results follow.
Outcomes: active, inactive

>  <compound>
COc1cc2ccc(=O)oc2c(OC)c1OC

>  <cat>
inactive

$$$$
>  <compound>
C=C(C)c1cc2cc(C(C)=O)c(O)cc2o1

>  <cat>
inactive

$$$$
>  <compound>
CC(C)=CCOc1cc2oc(=O)ccc2cc1O

>  <cat>
active

$$$$
>  <compound>
CCCC(=O)Nc1ncnc2c1ncn2C1O[C@@H]2COP(=O)(O)O[C@H]2[C@H]1OC(=O)CCC (some centres not stated)

>  <cat>
inactive

$$$$
>  <compound>
COc1cc2ccc(=O)oc2c(O)c1O

>  <cat>
inactive

$$$$
>  <compound>
Cc1cccc(N(C)C(=S)Oc2ccc3ccccc3c2)c1

>  <cat>
inactive

$$$$
>  <compound>
CC(C)=CCOc1c2occc2cc2ccc(=O)oc12

>  <cat>
active

$$$$
>  <compound>
CC(C)=CCC1=C(O)c2ccccc2C(=O)C1=O

>  <cat>
inactive

$$$$
>  <compound>
Cc1c(N(C)CS(=O)(=O)O)c(=O)n(-c2ccccc2)n1C

>  <cat>
inactive

$$$$
>  <compound>
COc1cc2ccc(=O)oc2cc1O

>  <cat>
inactive

$$$$
>  <compound>
O=C1OC(=O)C2C3CCC(O3)C12 (configuration not stated)

>  <cat>
inactive

$$$$
>  <compound>
CCCCC(=O)O[C@H]1CCC2C3CCc4cc(O)ccc4C3CC[C@@]21C (some centres not stated)

>  <cat>
inactive

$$$$

---

Reported normalized growth values for a set of compounds
Assay: chemical genetic growth profiling, strain panel (AID 1159580)
Settings: S. cerevisiae deletion strains, growth OD, locus YOR069W, strain VPS5, active compounds read low
About 2,000 (36%) of roughly 5,500 compounds were called active. Another 18% or so got no clear call; they are omitted. The list shows a part of the results.
property_label: normalized growth

>  <compound>
COc1cc2ccc(=O)oc2c(O)c1O

>  <property_label>
normalized growth

>  <result>
1.01

$$$$
>  <compound>
COc1ccc2c(c1)[nH]c1c(C)nccc12

>  <property_label>
normalized growth

>  <result>
1

$$$$
>  <compound>
CCCCCN=C(N)N/N=C\c1c[nH]c2ccc(OC)cc12

>  <property_label>
normalized growth

>  <result>
1.01

$$$$
>  <compound>
CCOc1ccc(Cc2nccc3cc(OCC)c(OCC)cc23)cc1OCC

>  <property_label>
normalized growth

>  <result>
0.98

$$$$
>  <compound>
CC(C)=CCOc1cc2oc(=O)ccc2cc1O

>  <property_label>
normalized growth

>  <result>
0.951

$$$$
>  <compound>
O=c1cc(-c2ccc(O)cc2)oc2cc(O[C@@H]3O[C@H](CO)[C@@H](O)[C@H](O)[C@H]3O[C@@H]3OC[C@](O)(CO)[C@H]3O)cc(O)c12

>  <property_label>
normalized growth

>  <result>
1

$$$$
>  <compound>
CCS(=O)(=O)CCn1c([N+](=O)[O-])cnc1C

>  <property_label>
normalized growth

>  <result>
1

$$$$
>  <compound>
COc1cc2ccc(=O)oc2cc1O

>  <property_label>
normalized growth

>  <result>
0.987

$$$$
>  <compound>
CC(=O)OC1CCC23C(=O)OC45CCC(C6=CC(=O)OC6)C4(C)CCC2C5CCC3(O)C1 (stereo unspecified)

>  <property_label>
normalized growth

>  <result>
1

$$$$
>  <compound>
Cn1c(=O)[nH]c(=O)c2[nH]cnc21

>  <property_label>
normalized growth

>  <result>
0.981

$$$$
>  <compound>
CC1(C)S[C@@H]2[C@H](NC(=O)COc3ccccc3)C(=O)N2[C@H]1C(=O)O

>  <property_label>
normalized growth

>  <result>
1

$$$$

---

Experiment: chemical genetic growth profiling, strain panel (AID 1159580);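 further: tested at 20 µM; growth read once vehicle control cultures reached saturation at 30 °C; 1 = growth at the plate median or of vehicle wells; lower values mean less growth of the strain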
Details: S. cerevisiae deletion strains, growth OD, locus YHR030C, strain SLT2
Screen size: about 5,500 compounds; about 2,000 (36%) were called active. Not shown: some 18% with an inconclusive outcome. Cut-off read from the data, not from the text of the source: active = normalized growth mostly below about 0.91 (no sharp cut-off); inconclusive = no clear call, values can overlap the other calls; inactive = mostly above about 0.92. The list shows a part of the results.
Outcomes: True (active), False (inactive)

>  <compound>
Oc1ccc(-n2nnnc2SCc2ccc(OC(F)(F)F)cc2)cc1

>  <cat>
True

$$$$
>  <compound>
Cc1nc([N+](=O)[O-])cn1CC(=O)c1ccc(Cl)cc1

>  <cat>
True

$$$$
>  <compound>
O=[N+]([O-])/N=C1/NCCN1Cc1ccc(Cl)cc1

>  <cat>
False

$$$$
>  <compound>
CC(C)(C)c1cc(C(C)(C)C)n(-c2ccc([N+](=O)[O-])cc2)n1

>  <cat>
False

$$$$
>  <compound>
CN(C)CC(=O)OC[C@@H](O)[C@@H](O)[C@H](O)[C@@H](O)C(=O)O

>  <cat>
False

$$$$
>  <compound>
CC(=O)/C(=C\N(C)C)Sc1nnc(C(F)(F)F)n1C

>  <cat>
False

$$$$
>  <compound>
Cc1ccc(S(=O)(=O)Oc2ccc(CC#N)cc2)cc1

>  <cat>
False

$$$$
>  <compound>
CCn1cc([N+](=O)[O-])nc1C

>  <cat>
False

$$$$
>  <compound>
O=c1c(-c2ccc3c(c2)OCO3)coc2cc(O)ccc12

>  <cat>
False

$$$$
>  <compound>
COc1cc(OC)c(-c2c(OC)cc(OC)cc2OC)c(OC)c1

>  <cat>
False

$$$$
>  <compound>
CC(=O)N[C@@H]1[C@@H](O)[C@H](O)[C@@H](CO)O[C@H]1O

>  <cat>
False

$$$$
>  <compound>
COc1cc(OC)cc(/C(N)=N\O)c1

>  <cat>
False

$$$$
>  <compound>
C(=NC(N=Cc1ccccc1)c1ccccc1)c1ccccc1 (centres undefined)

>  <cat>
False

$$$$
>  <compound>
FC(F)(F)COCC(F)(F)F

>  <cat>
False

$$$$
>  <compound>
CC(C)(C)c1cc(C(C)(C)C)n(-c2ccc(N=Cc3cc(Br)cc(Br)c3O)cc2)n1

>  <cat>
True

$$$$
>  <compound>
CCOC(=O)C1C(c2ccc(Br)cc2)C(C(=O)OCC)C(O)(C(F)(F)F)NC1(O)C(F)(F)F (centres undefined)

>  <cat>
False

$$$$
>  <compound>
COc1cccc(C(=O)C(C#N)=C(SC)SC)c1

>  <cat>
True

$$$$
>  <compound>
CC1(C)C=Cc2c(cc3occ(-c4ccc5c(c4)OCO5)c(=O)c3c2O)O1

>  <cat>
False

$$$$
>  <compound>
CC(=O)N[C@@H](CC(=O)O)C(=O)O

>  <cat>
False

$$$$
>  <compound>
CCOC(=O)c1csc(N/N=C2/CCCc3ccccc32)n1

>  <cat>
True

$$$$
>  <compound>
N#Cc1c(N)sc2c1CCc1ccccc1-2

>  <cat>
True

$$$$
>  <compound>
Cc1ccc(C(=O)NNC(=O)c2ccncc2)c(C)c1

>  <cat>
False

$$$$
>  <compound>
Cc1nccc2c1[nH]c1ccccc12

>  <cat>
False

$$$$
>  <compound>
O=C(NC(c1ccccc1)C(N=Cc1ccccc1)c1ccccc1)c1ccccc1 (centres undefined)

>  <cat>
False

$$$$

---

Assay: chemical genetic growth profiling, strain panel (AID 1159580);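 further: tested at 20 µM; growth read once vehicle control cultures reached saturation at 30 °C; 1 = growth at the plate median or of vehicle wells; lower values mean less growth of the strain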
Settings: S. cerevisiae deletion strains, growth OD, locus YFR028C, strain CDC14, active compounds read low
About 2,000 (36%) of roughly 5,500 compounds were called active. Another 18% or so got no clear call; they are omitted. Some of the results follow.

>  <compound>
CC1CCc2c(sc3ncnc(Sc4ccccc4)c23)C1 (stereo unspecified)

>  <normalized growth>
0.975

$$$$
>  <compound>
FC(F)(F)c1ccc(NC(=S)Nc2ccc(C(F)(F)F)cc2Cl)c(Cl)c1

>  <normalized growth>
0.953

$$$$
>  <compound>
CCOC(=O)C(NC(C)=O)(Nc1ccc(F)c(Cl)c1)C(F)(F)F (stereo unspecified)

>  <normalized growth>
0.979

$$$$
>  <compound>
COc1cccc(C(=O)C(C#N)=C(SC)SC)c1

>  <normalized growth>
0.868

$$$$
>  <compound>
CCOC(=O)C(O)(c1ccc(NC(=O)Nc2ccc(Cl)cc2)cc1)C(F)(F)F (stereo unspecified)

>  <normalized growth>
0.992

$$$$
>  <compound>
Oc1ccc(-n2nnnc2SCc2ccc(OC(F)(F)F)cc2)cc1

>  <normalized growth>
0.97

$$$$

---

Reported normalized growth values for a set of molecules
Assay: chemical genetic growth profiling, strain panel (AID 1159580);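 further: tested at 20 µM; growth read once vehicle control cultures reached saturation at 30 °C; 1 = growth at the plate median or of vehicle wells; lower values mean less growth of the strain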
Conditions: S. cerevisiae deletion strains, growth OD, locus YNL322C, strain KRE1, active compounds read low
Among all 5,500 compounds or so, about 2,000 (36%) were called active. Another 18% or so got no clear call; they are omitted. The list shows a part of the results.

>  <molecule>
CC1=C2[C@](C)(C=CC1=O)C[C@H](O)[C@H]1[C@H](C)C(=O)O[C@]21C

>  <normalized growth>
1.02 (inactive)

$$$$
>  <molecule>
NOCC(=O)O

>  <normalized growth>
0.998 (inactive)

$$$$
>  <molecule>
CCNc1nc(Cl)nc(NC(C)C)n1

>  <normalized growth>
1.02 (inactive)

$$$$
>  <molecule>
Cc1c(-n2cccc2)cc2c(c1[N+](=O)[O-])C(C)(C)CC2(C)C

>  <normalized growth>
1.02 (inactive)

$$$$
>  <molecule>
C#CCN1C(C)=C(C(=O)OC)C(c2cccc([N+](=O)[O-])c2)C(C(=O)OCC)=C1C (stereo not drawn)

>  <normalized growth>
1 (inactive)

$$$$
>  <molecule>
Cc1cc(N=CNO)c2ccccc2n1

>  <normalized growth>
0.962 (inactive)

$$$$
>  <molecule>
CC(=O)c1csc([N+](=O)[O-])c1

>  <normalized growth>
1.01 (inactive)

$$$$
>  <molecule>
O=C(Oc1ccc(F)cc1)c1cccs1

>  <normalized growth>
1 (inactive)

$$$$
>  <molecule>
COC(=O)c1c(OC)ccc(N=CNO)c1OC

>  <normalized growth>
1 (inactive)

$$$$
>  <molecule>
CC(C)(C)c1ccc(C(=O)N/N=C\c2cc(Cl)cc(Cl)c2O)cc1

>  <normalized growth>
0.998 (inactive)

$$$$
>  <molecule>
CCCN(CCC)[C@@H]1CCc2ccc(O)cc2C1

>  <normalized growth>
0.978 (inactive)

$$$$
>  <molecule>
Nc1ncnc2nc[nH]c12

>  <normalized growth>
0.97 (inactive)

$$$$
>  <molecule>
O=c1[nH]cnc2nc[nH]c12

>  <normalized growth>
1.01 (inactive)

$$$$
